Provide the recorded TGI for the entries that follow.
# System: RPMI-8226 leukemia
# assay.comment: NCI tumour cell line growth inhibition, 48 h

Quickly give me recorded TGI for Cc1cc(C)nc(NS(=O)(=O)c2ccc(Nc3c4ccccc4nc4c(C(=O)NCCCN(CCO)CCO)cccc34)cc2)n1
79.6 µM

Quickly give me recorded TGI for CCc1n[nH]c(=O)n1/N=C/c1ccccc1Cl
> 100 µM

Quickly give me recorded TGI for O=[N+]([O-])c1cccc2nc3ccccc3c(NCCc3cccc[n+]3[O-])c12
0.0679 µM

Quickly give me recorded TGI for N#Cc1c(-c2ccc([N+](=O)[O-])cc2)cc(-c2ccc(Nc3ccnc4cc(C(F)(F)F)ccc34)cc2)nc1N
> 54.5 µM

Quickly give me recorded TGI for CS(=O)CCCCCN=C=S (stereo not given)
14.5 µM

Quickly give me recorded TGI for Cc1cc2cc3cc(C)c(N(C)C)cc3nc2cc1N(C)C
> 100 µM

Quickly give me recorded TGI for CSc1cnn(CCC#N)c(=O)n1
> 100 µM

Quickly give me recorded TGI for CC1(C)CC[C@]2(C)CC=C3[C@]4(C)CC[C@H]5C(C)(C)C(=O)CC[C@]5(C)[C@H]4CC[C@@]3(C)[C@H]2C1
> 100 µM

Quickly give me recorded TGI for COc1cc2c(cc1OC)-c1cc3cc(OC)c(OC)cc3n1CC2
> 100 µM

Now consider the entry below.
Quickly give me recorded TGI for N#CC(C(=O)/C(=N\Nc1nc(=S)[nH]n1N)C(C#N)c1ccc(Cl)cc1)c1ccc(Cl)cc1 (stereo not given)
> 100 µM

---

Provide the recorded TGI for the entries that follow.
# Tested on: COLO 205 colon
# assay.comment: NCI tumour cell line growth inhibition, 48 h

Answered examples (3):
Report its TGI with COLO 205 colon as the test system: CN(C)c1ccc(/C=C(\C#N)C(N)=C(C#N)C#N)cc1
> 100 µM

Report its TGI with COLO 205 colon as the test system: CC1OC(OC2C(O[C@H]3CC[C@@]4(C)[C@@H](CC[C@@H]5[C@@H]4CC[C@]4(C)[C@@H]6[C@H](C[C@@H]54)O[C@]4(CC[C@@H](C)CO4)[C@H]6C)C3)OC(CO)C(OC3OC(CO)C(O)C(OC4OCC(O)C(O)C4O)C3OC3OCC(O)C(O)C3O)C2O)C(O)C(O)C1O (some centres undefined)
1.35 µM

Report its TGI with COLO 205 colon as the test system: Cc1ccc(C2NC(=S)NC3=C2CCOc2c3ccc3ccccc23)cc1 (centres undefined)
> 100 µM

Continuing:
Report its TGI with COLO 205 colon as the test system: Cc1cn(C2CCC(/C=N\O)O2)c(=O)[nH]c1=O (centres undefined)
> 100 µM

---

# Test system: NCI-H522 lung
# assay.comment: NCI tumour cell line growth inhibition, 48 h
observed.property: TGI

Answered examples (5):
Report its TGI with NCI-H522 lung as the test system: CC1=C2c3c(C)ccc4ccc(C)c(c34)C2(O)C(C)C1=O (stereo not given)
> 100 µM

Report its TGI with NCI-H522 lung as the test system: COc1cc(C2c3cc4c(cc3OC(Nc3ccc(C(=O)O)cc3)C2C)OCO4)cc(OC)c1OC (stereo not given)
6.02 µM

Report its TGI with NCI-H522 lung as the test system: Cc1c(CCOC=O)c(=O)[nH]c2nncn12
> 100 µM

Report its TGI with NCI-H522 lung as the test system: NC(=O)C1=NNc2ccccc2C(=O)N1c1ccccc1
> 100 µM

Report its TGI with NCI-H522 lung as the test system: COCC1OC(OC2C3=C(C(C)C)CCC3(C)/C=C3\C(CCC3(O)COC)C(C)C2O)C(O)C2OC3OC12OC3(C)C1CO1 (stereo not given)
82.4 µM

Give TGI for all molecules that follow.
1. COC(=O)c1ccc2c(c1)nc(-c1cc3ccccc3[nH]c1=O)n2-c1cc(C(C)(C)C)[nH]n1
2. CC1=CC(=O)CCC2(C)C1CC[C@@H]2OC=O (stereo not given in full)

> 100 µM
> 100 µM

Give TGI for all molecules that follow.
1. Cn1c(=O)cc(NCc2ccc(Cl)cc2)[nH]c1=O
2. C=C/C=C(\NC(=O)C(Cl)(Cl)Cl)[Si](C)(C)C
3. O=c1cc(N2CCOCC2)[nH]c(=O)n1-c1cccc(C(F)(F)F)c1

> 100 µM
> 100 µM
> 100 µM
